# Target desc: T1, human CX3CR1 (human, UniProt P49238 1-355)
# T1 construct: overexpressed on CHO, BA/F3 or HEK293T cells; also called huCX3CR1; hCX3CR1
# T1 sequence: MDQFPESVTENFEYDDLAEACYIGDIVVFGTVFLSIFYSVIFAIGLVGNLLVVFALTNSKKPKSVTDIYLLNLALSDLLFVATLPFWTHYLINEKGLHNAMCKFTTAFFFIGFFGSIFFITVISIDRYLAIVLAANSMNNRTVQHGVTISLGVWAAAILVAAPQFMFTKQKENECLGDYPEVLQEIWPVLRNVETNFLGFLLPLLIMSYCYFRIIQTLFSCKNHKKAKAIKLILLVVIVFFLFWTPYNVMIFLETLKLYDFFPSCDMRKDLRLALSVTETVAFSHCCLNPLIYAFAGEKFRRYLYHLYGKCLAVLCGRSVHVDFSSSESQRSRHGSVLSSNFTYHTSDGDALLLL
# Experiment: A647-fractalkine competition FACS, HEK293-huCX3CR1
Property measured: pIC50
Please report pIC50 as the negative decimal logarithm of the molar concentration, giving only the number.

CX3CR1BII020 (VHH, expressed in E. coli as described for the monovalent VHHs) EVQLVESGGGSVQAGESLRLSCAASGSIFSSNAMAWYRQAPGKQRDLVAGINSVGITKYADSVKGRFTISRDNAKNTAYLQMNSLKPEDTAVYYCTSDPRRGWDTRYWGQGTLVTVSSGGGGSGGGGSGGGGSGGGGSGGGGSGGGGSGGGGSEVQLVESGGGSVQAGESLRLSCAASGSIFSSNAMAWYRQAPGKQRDLVAGINSVGITKYADSVKGRFTISRDNAKNTAYLQMNSLKPEDTAVYYCTSDPRRGWDTRYWGQGTLVTVSS	9.66

Lookup: Name the recorded pIC50 for CX3CR1BII018 (VHH, A647 label where used as labeled competitor (Example 14), expressed in E. coli as described for the monovalent VHHs; also called A647-018; A647 labeled CX3CR1BII018) EVQLVESGGGSVQAGESLRLSCAASGSIFSSNAMAWYRQAPGKRRDLVAAINSVGVTKYADSVKGRFTISRDNAKNTVYLQMNSLKPEDTAVYYCTSDPRRGWDTRYWGQGTQVTVSSGGGGSGGGGSGGGGSGGGGSGGGGSGGGGSGGGGSEVQLVESGGGSVQAGESLRLSCAASGSIFSSNAMAWYRQAPGKRRDLVAAINSVGVTKYADSVKGRFTISRDNAKNTVYLQMNSLKPEDTAVYYCTSDPRRGWDTRYWGQGTQVTVSS .
Found: 9.52
